assay-conditions: anaerostipes sp., 12 h, 2 µM
Description: The drug is tested on Anaerostipes sp. strain: fecal isolate for biotransformation. The drug concentrations were measured before and after a 12-h incubation by liquid-chromatography-coupled mass spectrometry (LC–MS)
assay-endpoint: Bacterial Biotransformation

Examples from the recorded data:
{"molecule": "CC(C)(C)NC[C@H](O)COc1ccccc1C1CCCC1.CC(C)(C)NC[C@H](O)COc1ccccc1C1CCCC1.O=S(=O)(O)O [PENBUTOLOL SULFATE]", "Bacterial Biotransformation": "Compound NOT metabolized"}
{"molecule": "COc1ccccc1N1CCN(CC(O)COc2cccc3ccccc23)CC1 (stereo unspecified)", "Bacterial Biotransformation": "Compound NOT metabolized"}
{"molecule": "CN1CCOC(c2ccccc2)c2ccccc2C1 (stereo unspecified)", "Bacterial Biotransformation": "Compound NOT metabolized"}
{"molecule": "Cc1ccccc1N1C(=O)c2cc(S(N)(=O)=O)c(Cl)cc2NC1C (stereo unspecified)", "Bacterial Biotransformation": "Compound NOT metabolized"}
{"molecule": "CS(=O)(=O)O.O.O.O.O=C1Cc2cc(CCN3CCN(c4nsc5ccccc45)CC3)c(Cl)cc2N1 [ZIPRASIDONE MESYLATE]", "Bacterial Biotransformation": "Compound NOT metabolized"}

Would you kindly share the measured Bacterial Biotransformation for CC(C)C[C@H]1C(=O)N2CCC[C@H]2[C@]2(O)O[C@](NC(=O)[C@@H]3C=C4c5cccc6[nH]c(Br)c(c56)C[C@H]4N(C)C3)(C(C)C)C(=O)N12.CS(=O)(=O)O [BROMOCRIPTINE MESYLATE] ?
Compound metabolized

Would you kindly share the measured Bacterial Biotransformation for `CNC(=C[N+](=O)[O-])NCCSCc1csc(CN(C)C)n1` ?
Compound metabolized

Would you kindly share the measured Bacterial Biotransformation for `Cc1ccc(NC(=O)c2ccc(CN3CCN(C)CC3)cc2)cc1Nc1nccc(-c2cccnc2)n1` ?
Compound NOT metabolized

Would you kindly share the measured Bacterial Biotransformation for O=C1N=C([O-])NC1(c1ccccc1)c1ccccc1.[Na+] [PHENYTOIN SODIUM] ?
Compound NOT metabolized

Would you kindly share the measured Bacterial Biotransformation for `CCCCCOC(=O)Nc1nc(=O)n([C@@H]2O[C@H](C)[C@@H](O)[C@H]2O)cc1F` ?
Compound NOT metabolized

Would you kindly share the measured Bacterial Biotransformation for `CN1CCc2c(c3ccccc3n2Cc2ccccc2)C1.CN1CCc2c(c3ccccc3n2Cc2ccccc2)C1.O=S(=O)(O)c1cccc2c(S(=O)(=O)O)cccc12` ?
Compound NOT metabolized

Would you kindly share the measured Bacterial Biotransformation for `CCCN(CCC)CCc1cccc2c1CC(=O)N2` ?
Compound NOT metabolized

Would you kindly share the measured Bacterial Biotransformation for `O=c1[nH]c2ccccc2n1CCCN1CCC(n2c(=O)[nH]c3cc(Cl)ccc32)CC1` ?
Compound NOT metabolized

* * *

measurement-notes: The drug is tested on Eubacterium rectale strain: ATCC33656 for biotransformation. The drug concentrations were measured before and after a 12-h incubation by liquid-chromatography-coupled mass spectrometry (LC–MS)
assay-conditions: agathobacter rectalis, 2 µM
assay-endpoint: Bacterial Biotransformation

{"compound": "Nc1c2c(nc3ccccc13)CCCC2", "Bacterial Biotransformation": "Compound NOT metabolized"}
{"compound": "COc1cc2nc(N3CCN(C(=O)C4CCCO4)CC3)nc(N)c2cc1OC (stereo not given)", "Bacterial Biotransformation": "Compound NOT metabolized"}
{"compound": "COc1ccc2[nH]c([S+]([O-])Cc3ncc(C)c(OC)c3C)nc2n1 (stereo not given)", "Bacterial Biotransformation": "Compound metabolized"}
{"compound": "CC(=O)Nc1ccc(OC(C)=O)cc1 [DIACETAMATE]", "Bacterial Biotransformation": "Compound metabolized"}

Would you kindly share the measured Bacterial Biotransformation for `CC[C@@]1(O)C(=O)OCc2c1cc1n(c2=O)Cc2cc3c(CN(C)C)c(O)ccc3nc2-1` ?
Compound NOT metabolized
